- SYSTEM_TESTED: T1, IL-2 receptor βγ complex (human, UniProt P14784 27-551; P31785 23-369)
- T1 sequence (looked up) 1: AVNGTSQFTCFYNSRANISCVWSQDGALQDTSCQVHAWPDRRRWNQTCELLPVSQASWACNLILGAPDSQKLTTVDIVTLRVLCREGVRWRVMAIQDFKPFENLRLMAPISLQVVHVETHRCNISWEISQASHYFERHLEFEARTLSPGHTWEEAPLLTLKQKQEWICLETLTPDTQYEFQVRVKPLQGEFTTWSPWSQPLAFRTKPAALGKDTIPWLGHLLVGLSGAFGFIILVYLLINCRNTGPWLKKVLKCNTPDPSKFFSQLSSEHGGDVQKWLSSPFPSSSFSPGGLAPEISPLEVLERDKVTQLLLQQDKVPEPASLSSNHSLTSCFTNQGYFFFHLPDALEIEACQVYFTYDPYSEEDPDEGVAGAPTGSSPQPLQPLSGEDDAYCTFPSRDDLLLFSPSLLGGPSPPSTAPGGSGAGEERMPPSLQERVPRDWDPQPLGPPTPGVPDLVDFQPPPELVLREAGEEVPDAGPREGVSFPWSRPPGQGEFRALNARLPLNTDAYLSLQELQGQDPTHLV
- T1 sequence (looked up) 2: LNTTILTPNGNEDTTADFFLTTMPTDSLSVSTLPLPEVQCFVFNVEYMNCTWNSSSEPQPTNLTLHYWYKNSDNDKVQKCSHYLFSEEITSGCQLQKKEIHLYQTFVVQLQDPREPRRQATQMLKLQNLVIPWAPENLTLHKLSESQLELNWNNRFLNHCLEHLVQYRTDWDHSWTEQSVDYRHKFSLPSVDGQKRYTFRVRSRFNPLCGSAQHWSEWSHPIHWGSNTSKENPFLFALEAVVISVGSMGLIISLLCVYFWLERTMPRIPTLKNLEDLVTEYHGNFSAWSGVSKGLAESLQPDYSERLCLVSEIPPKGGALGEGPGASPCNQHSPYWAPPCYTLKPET
- EXPERIMENT_NOTES: cell-based or functional assay
Bridges are numbered along the chain shown (N, C = ends). [ ]: non-standard residue; d: D form. 8x polyethylene glycol‑amino = O-(8x polyethylene glycol-amino)-tyrosine, SITE 45; 9x polyethylene glycol‑azido = O-(9x polyethylene glycol-azido)-tyrosine, SITE 42; Ygp = O-(8x polyethylene glycol-amino)-tyrosine (Tyr, amino-capped PEG8); Yn3 = O-(9x polyethylene glycol-azido)-tyrosine (Tyr, azide-capped PEG9); hSer = N[C@@H](CCO)C(=O)O; Nle = CCCC[C@H](N)C(=O)O
The following binders are listed with their measured Average EC50, pSTAT5 Assay in NK cells values.
REPORTED_ENDPOINT: Average EC50, pSTAT5 Assay in NK cells

CMP-318 (ligand, lactam N-32; ends not checked) SGRVANLVGAPTSSSTKKTQLQLEHLLLDLQEILNGINNYKNPKLTR[Nle]L[hSer][Yn3]KF[Ygp][Nle]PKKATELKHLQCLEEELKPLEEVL[hSer]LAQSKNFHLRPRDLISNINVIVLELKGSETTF[hSer]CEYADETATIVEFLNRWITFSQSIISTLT; 37.4 nM
CMP-315, MMP2 cleaved molecule (ligand, also: K23 side chain attached to another sequence, m89 after MMP2 cleavage, product not given here as a sequence) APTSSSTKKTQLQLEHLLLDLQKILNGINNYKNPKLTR[Nle]L[hSer]Y(9x polyethylene glycol‑azido)KFY(8x polyethylene glycol‑amino)[Nle]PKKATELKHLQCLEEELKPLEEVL[hSer]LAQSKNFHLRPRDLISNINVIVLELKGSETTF[hSer]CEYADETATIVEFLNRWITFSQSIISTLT; 0.369 nM

src = patent US20240376170A1
